- studySystem: menin/MLL binding (biotinylated wild-type or mutated menin and MLL-AF9 fusion protein) (Homo sapiens, UniProt O00255)
- Construct: biotinylated (1) wild-type menin or (2) mutated menin (described in Nature (2012) Vol. 482, pp. 542-548); fused on or other part: Biotin attached chemically (Sulfo-NHS-Biotin); no fused second protein is printed for menin
- Sequence (O00255 1-459 limits assumed, change not shown): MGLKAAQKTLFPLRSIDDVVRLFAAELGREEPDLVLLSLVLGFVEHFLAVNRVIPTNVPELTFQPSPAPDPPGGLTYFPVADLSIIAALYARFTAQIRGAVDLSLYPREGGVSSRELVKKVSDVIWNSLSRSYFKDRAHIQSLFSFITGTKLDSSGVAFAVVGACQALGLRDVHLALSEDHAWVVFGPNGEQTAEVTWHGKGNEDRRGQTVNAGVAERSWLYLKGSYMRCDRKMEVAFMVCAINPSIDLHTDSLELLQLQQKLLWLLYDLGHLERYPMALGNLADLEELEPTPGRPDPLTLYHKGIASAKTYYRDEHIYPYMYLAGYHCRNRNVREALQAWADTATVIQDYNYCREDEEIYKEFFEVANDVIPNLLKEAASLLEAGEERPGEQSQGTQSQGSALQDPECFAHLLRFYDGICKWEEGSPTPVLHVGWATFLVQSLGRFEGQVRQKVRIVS
- assayComment: Assay 1 (Binding Assay): AlphaLISA menin/MLL binding
- assayContext: 5 nM biotinylated menin, MLL-AF9-FLAG lysate
measuredProperty: IC50

Below: 8 molecules and their reported IC50.
- CC(C)N(C)C(=O)c1cc(F)ccc1-n1cc(C2CCC(N(C)C)CC2)c2ccncc21 (single isomer, unassigned) [Example 54A]: 100 to 1000 nM
- CCCCCCCCCCCCCCCCCC(=O)OCCn1c(=O)[nH]c2cc(CN3CCC[C@H](c4cn(-c5ccc(F)cc5C(=O)N(C)C(C)C)c5cnccc45)C3)ccc21 [Example 86]: < 100 nM
- CC(C)N(C)C(=O)c1cc(F)ccc1-n1cc([C@H]2CC[C@@H](N3CCCCC3)CC2)c2ccncc21 [Example 107]: < 100 nM
- CC(C)N(C)C(=O)c1cc(F)ccc1-n1cc([C@H]2CC[C@H](N3CCCC3)CC2)c2ccncc21 [Example 55]: < 100 nM
- CC(C)N(C)C(=O)c1cc(F)ccc1-n1cc(C2CCN(CC[C@H]3CC[C@H](NS(C)(=O)=O)CC3)CC2)c2ccncc21 [Example 19]: < 100 nM
- CC(C)N(C)C(=O)c1cc(F)ccc1-n1c(=O)n(C2CCN(CC[C@H]3CC[C@H](NS(C)(=O)=O)CC3)CC2)c2ccncc21 [Example 78]: < 100 nM
- CC(C)N(C)C(=O)c1cc(F)ccc1-n1cc([C@H]2CC[C@H](N)CC2)c2ccncc21 [Example 57]: < 100 nM
- CC(C)N(C)C(=O)c1cc(F)ccc1-n1cc(C2CCC(N3CCC(O)C3)CC2)c2ccncc21 (single isomer, unassigned) [Example 95A]: < 100 nM

# get_value(readout='IC50', item= CCN(C(=O)c1cc(F)ccc1-n1cc([C@H]2CCCN(Cc3ccc4c(c3)[nH]c(=O)n4CCO)C2)c2ccncc21)C(C)C [Example 49B] )
< 100 nM

CC(C)N(C)C(=O)c1cc(F)ccc1-n1cc(C2CCN(Cc3ccc(S(C)(=O)=O)cc3)CC2)c2ccncc21 [Example 13] ?
100 to 1000 nM

O=c1[nH]c2ccc(CN3CCC(c4cn(-c5ccc(F)cc5)c5cncnc45)CC3)cc2[nH]1 [Example 67] ?
≥ 1000 nM

CS(=O)(=O)N[C@H]1CC[C@H](CCN2CCC(c3cn(-c4ccc(F)cc4OCC4CC4)c4cnccc34)CC2)CC1 [Example 34] ?
< 100 nM

CC(C)N(C)C(=O)c1cc(F)ccc1-n1cc([C@H]2CC[C@@H](N3CCCC3)CC2)c2ccncc21 [Example 56] ?
< 100 nM

Cc1c(CN2CCC(n3c(=O)n(-c4ccc(F)cc4C(=O)N(C)C(C)C)c4cnccc43)CC2)ccc2[nH]c(C#N)cc12 [Example 82] ?
< 100 nM

CC(C)N(C)C(=O)c1cc(F)ccc1-n1cc([C@H]2CC[C@@H](N3CC[C@H](CO)C3)CC2)c2ccncc21 [Example 105] ?
100 to 1000 nM
